Origin of values: ChEMBL document CHEMBL4814036

Assay: Inhibition of laminin deposition in human LX2 cells
Assay type: functional, cell-based
Conditions: lx-2
pIC50: −log10 of the molar value.
reported-property: pIC50

a: C=C1C(=O)O[C@@H]2[C@H]3C(C)=CC[C@@H](OC(=O)/C=C/c4cccc(C(F)(F)F)c4)[C@]3(C)CC[C@@H]12
b: COc1cc([C@H]2Oc3cc([C@H]4Oc5cc(O)cc(O)c5C(=O)[C@@H]4O)ccc3O[C@@H]2CO)ccc1O
c: C=C1C(=O)O[C@@H]2[C@H]3C(C)=CC[C@@H](OC(=O)/C=C/c4c(F)c(F)c(F)c(F)c4F)[C@]3(C)CC[C@@H]12
query: Sort ascending by pIC50: all records listed above. # respond with the labels, arranged in the requested order
result: b, a, c
(b: 4.08, a: 5.14, c: 5.48)
